Target: T1, RBFOX1 RRM RbFoxmut (Fox-RRM*) (Homo sapiens, UniProt Q9NWB1 109-208, R118D;E147R;N151S;E152T)
T1 sequence: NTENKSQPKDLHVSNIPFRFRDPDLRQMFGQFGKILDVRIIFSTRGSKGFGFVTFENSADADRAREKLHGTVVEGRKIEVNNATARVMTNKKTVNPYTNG
Experiment: EMSA; HiTS-Eq, 1 nM pool, 10 min; buffer printed only for the single-RNA assays: 10 mM Tris pH 7.5, 150 mM NaCl, 3.4 mM EDTA, 0.001% NP-40, 30 C
Settings: tags: His6 N-terminal (pET28a); label: 5' 32P
The full ranking holds about 16,000 sequences; the median of “ka relative to ugcaugu” is about 0.096, and the highest 2% start at about 0.35. The sample holds the highest values, similar sequences and a random draw of the others, so the mix is not that of the screen.
Recorded binding signal for the following binders

>  <binder>
GUAUGCG (DNA:RNA) RNA: GGGAGACCGGAAUUCAGAUUGUCCGUAUGCGUUAAAUCCCGUCGUAGCCACCA DNA 1: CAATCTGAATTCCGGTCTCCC DNA 2: TGGTGGCTACGACGGGATT

>  <binding signal>
0.468 KA relative to UGCAUGU

$$$$
>  <binder>
GACAUGC (DNA:RNA) RNA: GGGAGACCGGAAUUCAGAUUGUCCGACAUGCUUAAAUCCCGUCGUAGCCACCA DNA 1: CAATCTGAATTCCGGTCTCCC DNA 2: TGGTGGCTACGACGGGATT

>  <binding signal>
0.0819 KA relative to UGCAUGU

$$$$
>  <binder>
GUCCGCU (DNA:RNA) RNA: GGGAGACCGGAAUUCAGAUUGUCCGUCCGCUUUAAAUCCCGUCGUAGCCACCA DNA 1: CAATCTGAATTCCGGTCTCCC DNA 2: TGGTGGCTACGACGGGATT

>  <binding signal>
0.11 KA relative to UGCAUGU

$$$$
>  <binder>
GCGUUUG (DNA:RNA) RNA: GGGAGACCGGAAUUCAGAUUGUCCGCGUUUGUUAAAUCCCGUCGUAGCCACCA DNA 1: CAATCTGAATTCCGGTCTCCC DNA 2: TGGTGGCTACGACGGGATT

>  <binding signal>
0.403 KA relative to UGCAUGU

$$$$
